- TEST_METHOD_NOTES: Phase 1 single dose pharmacokinetic study of eliglustat tartrate in severe renal impairment and matched normal renal function subjects (Example 3)
- Format: in vivo, human
- CONDITION_INFO: human, plasma, oral, 100 mg, CYP2D6 IM, severe RI, N=1, taking escitalopram and amlodipine; single oral 100 mg eliglustat tartrate; plasma; read-out: Cmax
REPORTED_ENDPOINT: Cmax (ng/mL)
Report the value in ng/mL with no unit label.

Inquiry: Endpoint output: Cmax of CCCCCCCC(=O)N[C@H](CN1CCCC1)[C@H](O)c1ccc2c(c1)OCCO2 . Value?
Reply text: 220

* * *

- TEST_METHOD_NOTES: Phase 1 single dose pharmacokinetic study of eliglustat tartrate in severe renal impairment and matched normal renal function subjects (Example 3)
- Assay type: in vivo, human
- CONDITION_INFO: both sexes, human, plasma, po, 100 mg, CYP2D6 EM, severe RI, N=7; single oral 100 mg eliglustat tartrate; plasma; read-out: AUC (extrapolated to infinity), mean ± SD
REPORTED_ENDPOINT: AUC(0-inf) (ng·h/mL)
Answer with a number only, understood to be in ng·h/mL.

Inquiry: I'd like to know its AUC(0-inf). The compound in question is CCCCCCCC(=O)N[C@H](CN1CCCC1)[C@H](O)c1ccc2c(c1)OCCO2 [eliglustat]
Reply text: 107

* * *

- TEST_METHOD_NOTES: Phase 1 single dose pharmacokinetic study of eliglustat tartrate in severe renal impairment and matched normal renal function subjects (Example 3)
- Format: in vivo, human
- CONDITION_INFO: both sexes, human, plasma, po, 100 mg, CYP2D6 EM, severe RI, N=7; single oral 100 mg eliglustat tartrate; plasma; read-out: Cmax, geometric mean
REPORTED_ENDPOINT: Cmax (ng/mL)
Enter your answer as a number in ng/mL; do not include the unit.

Inquiry: What measured Cmax goes with CCCCCCCC(=O)N[C@H](CN1CCCC1)[C@H](O)c1ccc2c(c1)OCCO2 ?
Reply text: 11.8

* * *

- TEST_METHOD_NOTES: Single oral dose pharmacokinetic study of eliglustat tartrate in mild or moderate hepatic impairment and matched healthy subjects (Example 1)
- Assay type: in vivo, human
- CONDITION_INFO: both sexes, human, plasma, po, 100 mg, CYP2D6 EM, moderate HI, N=7; single 100 mg eliglustat tartrate oral; plasma; read-out: AUClast, mean ± SD
REPORTED_ENDPOINT: AUC(0-t) (ng·h/mL)
Could you give me the number in ng·h/mL? Just the number is fine.

Inquiry: # lookup: AUC(0-t) of CCCCCCCC(=O)N[C@H](CN1CCCC1)[C@H](O)c1ccc2c(c1)OCCO2
Reply text: 536

* * *

- TEST_METHOD_NOTES: Phase 1 single dose pharmacokinetic study of eliglustat tartrate in severe renal impairment and matched normal renal function subjects (Example 3)
- Format: in vivo, human
- CONDITION_INFO: human, plasma, oral, 100 mg, CYP2D6 IM, severe RI, N=1, taking escitalopram and amlodipine; single oral 100 mg eliglustat tartrate; plasma; read-out: AUClast
REPORTED_ENDPOINT: AUC(0-t) (ng·h/mL)
Field format: number, assumed ng·h/mL, no unit text.

Inquiry: Any idea what AUC(0-t) was measured for CCCCCCCC(=O)N[C@H](CN1CCCC1)[C@H](O)c1ccc2c(c1)OCCO2 ?
Reply text: 3590

* * *

- TEST_METHOD_NOTES: Phase 1 single dose pharmacokinetic study of eliglustat tartrate in severe renal impairment and matched normal renal function subjects (Example 3)
- Type: in vivo, human
- CONDITION_INFO: both sexes, human, plasma, po, 100 mg, CYP2D6 EM, healthy, N=7; single oral 100 mg eliglustat tartrate; plasma; read-out: Vz/F, mean ± SD
REPORTED_ENDPOINT: Vd/F
Kindly format the answer as number then unit.

Inquiry: Quick one: Vd/F of CCCCCCCC(=O)N[C@H](CN1CCCC1)[C@H](O)c1ccc2c(c1)OCCO2 [eliglustat] ?
Reply text: 11700 L

* * *

- TEST_METHOD_NOTES: Phase 1 single dose pharmacokinetic study of eliglustat tartrate in severe renal impairment and matched normal renal function subjects (Example 3)
- Format: in vivo, human
- CONDITION_INFO: both sexes, human, plasma, po, 100 mg, CYP2D6 EM, severe RI, N=7; single oral 100 mg eliglustat tartrate; plasma; read-out: Vz/F, geometric mean
- Protocol: A phase 1, open-label, 2-stage, pharmacokinetic and tolerability study of single dose eliglustat tartrate in subjects with renal impairment (RI) (mild, moderate, and severe) and subjects with normal renal function, matched to RI subjects by age, weight, and cytochrome P450 [CYP] […] Eliglustat concentrations in plasma were determined using a validated liquid chromatography tandem mass spectrometry method with a lower limit of quantification (LLOQ) of 0.2 ng/mL. […]
REPORTED_ENDPOINT: Vd/F

Inquiry: // lookup Vd/F for CCCCCCCC(=O)N[C@H](CN1CCCC1)[C@H](O)c1ccc2c(c1)OCCO2 [eliglustat]
Reply text: 7940 L

* * *

- TEST_METHOD_NOTES: Phase 1 single dose pharmacokinetic study of eliglustat tartrate in severe renal impairment and matched normal renal function subjects (Example 3)
- Assay type: in vivo, human
- CONDITION_INFO: both sexes, human, plasma, po, 100 mg, CYP2D6 EM, healthy, N=7; single oral 100 mg eliglustat tartrate; plasma; read-out: AUC (extrapolated to infinity), geometric mean
REPORTED_ENDPOINT: AUC(0-inf) (ng·h/mL)
Kindly answer with a numeric value in ng·h/mL, unit omitted.

Inquiry: Given the entry CCCCCCCC(=O)N[C@H](CN1CCCC1)[C@H](O)c1ccc2c(c1)OCCO2 , report its measured AUC(0-inf).
Reply text: 101

* * *

- TEST_METHOD_NOTES: Phase 1 single dose pharmacokinetic study of eliglustat tartrate in severe renal impairment and matched normal renal function subjects (Example 3)
- Type: in vivo, human
- CONDITION_INFO: human, plasma, oral, 100 mg, CYP2D6 IM, healthy, N=1; single oral 100 mg eliglustat tartrate; plasma; read-out: AUC (extrapolated to infinity)
REPORTED_ENDPOINT: AUC(0-inf) (ng·h/mL)
// return numeric value only (unit: ng·h/mL, not printed)

Inquiry: Which AUC(0-inf) is listed for CCCCCCCC(=O)N[C@H](CN1CCCC1)[C@H](O)c1ccc2c(c1)OCCO2 ?
Reply text: 559

* * *

- TEST_METHOD_NOTES: Single oral dose pharmacokinetic study of eliglustat tartrate in mild or moderate hepatic impairment and matched healthy subjects (Example 1)
- Assay type: in vivo, human
- CONDITION_INFO: both sexes, human, plasma, po, 100 mg, CYP2D6 EM, mild HI, N=6; single 100 mg eliglustat tartrate oral; plasma; read-out: Cmax, mean ± SD
REPORTED_ENDPOINT: Cmax (ng/mL)
State just the number; it will be interpreted in ng/mL.

Inquiry: Can you share its Cmax? I mean this compound: CCCCCCCC(=O)N[C@H](CN1CCCC1)[C@H](O)c1ccc2c(c1)OCCO2 [eliglustat]
Reply text: 22.4

* * *

- TEST_METHOD_NOTES: Phase 1 single dose pharmacokinetic study of eliglustat tartrate in severe renal impairment and matched normal renal function subjects (Example 3)
- Format: in vivo, human
- CONDITION_INFO: both sexes, human, plasma, po, 100 mg, CYP2D6 EM, severe RI, N=7 (5 taking amlodipine); single oral 100 mg eliglustat tartrate; plasma; read-out: Cmax, mean ± SD
REPORTED_ENDPOINT: Cmax (ng/mL)
Numeric answer only, unit ng/mL assumed.

Inquiry: Give its Cmax value. Item: CCCCCCCC(=O)N[C@H](CN1CCCC1)[C@H](O)c1ccc2c(c1)OCCO2 [eliglustat]
Reply text: 12.7

* * *

- TEST_METHOD_NOTES: Single oral dose pharmacokinetic study of eliglustat tartrate in mild or moderate hepatic impairment and matched healthy subjects (Example 1)
- Format: in vivo, human
- CONDITION_INFO: human, plasma, oral, 100 mg, CYP2D6 IM, moderate HI, N=1; single 100 mg eliglustat tartrate oral; plasma; read-out: Cmax
REPORTED_ENDPOINT: Cmax (ng/mL)
Supply the numeric figure in ng/mL, leaving out any unit text.

Inquiry: Give the measured Cmax of CCCCCCCC(=O)N[C@H](CN1CCCC1)[C@H](O)c1ccc2c(c1)OCCO2 .
Reply text: 35.6

* * *

- TEST_METHOD_NOTES: Single oral dose pharmacokinetic study of eliglustat tartrate in mild or moderate hepatic impairment and matched healthy subjects (Example 1)
- Type: in vivo, human
- CONDITION_INFO: both sexes, human, plasma, po, 100 mg, CYP2D6 EM, mild HI, N=6; single 100 mg eliglustat tartrate oral; plasma; read-out: AUC (extrapolated to infinity), geometric mean
REPORTED_ENDPOINT: AUC(0-inf) (ng·h/mL)
Number only, in ng·h/mL; omit the unit.

Inquiry: Any idea what AUC(0-inf) was measured for CCCCCCCC(=O)N[C@H](CN1CCCC1)[C@H](O)c1ccc2c(c1)OCCO2 [eliglustat] ?
Reply text: 68.5
